System: HuP-T4 cells
Assay: Cell growth inhibition assay (CellTiter-Glo)
Assay type: cell-based
Settings: Homo sapiens, HuP-T4, 168 h; 7 days, estimated from four-parameter curve
Procedure: Cells were seeded in opaque-walled 96-well microplates at appropriate densities according to the growth curves (data no shown). On the following day cells were dosed with compounds. After 7 days treatments, cells viability was measured by adding 30μL CellTiter-Glo reagent (Promega) and incubated for 10 min at RT. Luminescence was measured by Envision plate reader (Perkin Elmer). […]
Kindly supply the reported pIC50 values for the records listed here.
One number for each entry, as −log10 of the molar value.

>  <compound>
O=C(c1cc(Cc2n[nH]c(=O)c3ccccc23)ccc1F)N1CCN(C(=O)C2CC2)CC1

>  <measuredOn>
HuP-T4 cells

>  <pIC50>
5.11

$$$$

Now consider a different compound.
Notebook: CC(C)OC(=O)Nc1ccc(-c2cnc(C3CCC(NC(=O)OC(C)C)CC3)s2)c(S(=O)(=O)C2CC2)c1 (centres unmarked) , pIC50 read as 5.10

---

test system: KP-4 cells; assay: Cell growth inhibition assay (CellTiter-Glo) and Bliss synergy analysis; type: cell-based; settings: Homo sapiens, KP-4, 168 h; 7 days, estimated from four-parameter curve
observationType: IC50 (µM)
Give bare numbers, in µM.

>  <molecule>
CC(C)OC(=O)Nc1ccc(-c2cnc(C3CCC(NC(=O)OC(C)C)CC3)s2)c(S(=O)(=O)C2CC2)c1 (centres unmarked) [Cpd-2]

>  <measuredOn>
KP-4 cells

>  <unitText>
µM

>  <experimentalResult>
3.17

$$$$

Now for the molecule whose IC50 we want.
Short answer for O=C(c1cc(Cc2n[nH]c(=O)c3ccccc23)ccc1F)N1CCN(C(=O)C2CC2)CC1 [Olaparib, olaparib] : IC50 was 7.09

---

test system: MIA PaCa-2 cells; experiment: Cell growth inhibition assay (CellTiter-Glo) and Bliss synergy analysis; type: cell-based; details: Homo sapiens, MIA PaCa-2, 168 h; 7 days, estimated from four-parameter curve
observationType: pIC50
Answers are plain numbers, as −log10 of the molar value.

>  <molecule>
O=C(c1cc(Cc2n[nH]c(=O)c3ccccc23)ccc1F)N1CCN(C(=O)C2CC2)CC1

>  <pIC50>
5.15

$$$$

Shifting focus to the molecule that follows.
GET /value?item= CC(C)OC(=O)Nc1ccc(-c2cnc(C3CCC(NC(=O)OC(C)C)CC3)s2)c(S(=O)(=O)C2CC2)c1 (centres unmarked) &field=pIC50 returns 5.32

---

system: NCI-H1563 cells; experiment: Cell growth inhibition assay (CellTiter-Glo); assay type: cell-based; conditions: Homo sapiens, NCI-H1563, 168 h; 7 days, estimated from four-parameter curve
observationType: IC50

>  <compound>
O=C(c1cc(Cc2n[nH]c(=O)c3ccccc23)ccc1F)N1CCN(C(=O)C2CC2)CC1

>  <IC50>
> 25 µM

$$$$

Now examine the next entry.
With NCI-H1563 cells as the test system, CC(C)OC(=O)Nc1ccc(-c2cnc(C3CCC(NC(=O)OC(C)C)CC3)s2)c(S(=O)(=O)C2CC2)c1 (centres unmarked) showed IC50 of 12.8 µM

---

system: MDA-MB-231 cells; assay: Cell growth inhibition assay (CellTiter-Glo); format: cell-based; conditions: Homo sapiens, MDA-MB-231, 168 h; 7 days, estimated from four-parameter curve
observationType: IC50
# include the unit after the value

>  <compound>
O=C(c1cc(Cc2n[nH]c(=O)c3ccccc23)ccc1F)N1CCN(C(=O)C2CC2)CC1

>  <measuredOn>
MDA-MB-231 cells

>  <IC50>
4.92 µM

$$$$

MDA-MB-231 cells IC50 of CC(C)OC(=O)Nc1ccc(-c2cnc(C3CCC(NC(=O)OC(C)C)CC3)s2)c(S(=O)(=O)C2CC2)c1 (centres unmarked) is 5.15 µM
